test system: Enterococcus sp.; assay: in vitro antibacterial evaluation, MIC by broth dilution; type: cell-based; conditions: Enterococcus avium (GC 4558); broth dilution, 18 hours at 35° C.
Numbered stars: 1 amine (or outer) side, 2 acyl side, 3 side chain; on linkers, the order of the positions; unused ones are H or OH. Square brackets hold non-standard residues; d marks the D form. Peptide text beside a SMILES is read from it. X5 = N=C1NCC(C(O)[C@@H](N[*:1])C(=O)[*:2])N1; X4 = N=C1NCC(C(O)[C@H](N[*:1])C(=O)[*:2])N1; Cha = N[C@@H](CC1CCCCC1)C(=O)O; dCha = N[C@H](CC1CCCCC1)C(=O)O
OUTCOME_MEASURE: MIC Enterococcus avium (GC 4558) (µg/mL)
Give the number; µg/mL is assumed, so skip it.

COMPOUND: CC(c1ccccc1)C1NC(=O)CNC(=O)C(CO)NC(=O)C(CC2CN(Cc3ccccc3)C(=NCc3ccccc3)N2C2OC(CO)C(O)C(O)C2O)NC(=O)C(CC2CN(Cc3ccccc3)C(=NCc3ccccc3)N2Cc2ccccc2)NC(=O)C(Cc2ccc(OC3OC(CO)C(OC4OC(CO)C(O)C(O)C4O)C(O)C3O)cc2)NC1=O (stereo not shown)
MIC Enterococcus avium (GC 4558) / µg/mL: 128

COMPOUND: CC(c1ccccc1)C1NC(=O)CNC(=O)C(CO)NC(=O)C(C(O)C2CNC(=N)N2C2OC(CO)C(O)C(O)C2O)NC(=O)C(C(O)C2CNC(=N)N2)NC(=O)C(Cc2ccc(OC3OC(CO)C(OC4OC5COC(c6cccs6)OC5C(O)C4O)C(O)C3O)cc2)NC1=O (stereo not shown)
MIC Enterococcus avium (GC 4558) / µg/mL: 16

COMPOUND: N=C1NCC(C(O)[C@@H]2NC(=O)[C@@H](CC3CCCCC3)NC(=O)[C@H](CC3CCCCC3)NC(=O)CNC(=O)[C@H](CO)NC(=O)[C@@H](C(O)C3CNC(=N)N3)NC2=O)N1 (stereo partly shown) [Example 58] (cyclo([Cha][dCha][X4][X5]SG))
MIC Enterococcus avium (GC 4558) / µg/mL: 32

IN: Which MIC Enterococcus avium (GC 4558) reading was recorded for the compound CC(C)CCC(=O)OC1C(OC2C(CO)OC(Oc3ccc(CC4NC(=O)C(C(C)c5ccccc5)NC(=O)CNC(=O)C(CO)NC(=O)C(C(O)C5CNC(=N)N5C5OC(CO)C(O)C(O)C5O)NC(=O)C(C(O)C5CNC(=N)N5)NC4=O)cc3)C(O)C2O)OC(CO)C(O)C1O (stereo not shown) [Example 270a] ?
OUT: 16
